target: C-C chemokine receptor type 1 (Homo sapiens); assay: Inhibition of CCL3 binding to C-C chemokine receptor type 1
Sequence (P32246 whole entry): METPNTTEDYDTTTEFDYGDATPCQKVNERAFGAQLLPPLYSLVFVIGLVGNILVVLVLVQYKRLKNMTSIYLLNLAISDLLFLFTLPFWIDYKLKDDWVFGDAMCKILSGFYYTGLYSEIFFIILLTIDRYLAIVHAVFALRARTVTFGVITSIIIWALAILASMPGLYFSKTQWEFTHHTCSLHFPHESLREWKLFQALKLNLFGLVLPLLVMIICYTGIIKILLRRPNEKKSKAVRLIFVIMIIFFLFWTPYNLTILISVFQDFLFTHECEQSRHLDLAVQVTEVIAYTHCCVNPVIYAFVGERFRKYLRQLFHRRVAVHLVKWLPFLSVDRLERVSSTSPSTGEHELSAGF
Rule: IC50 below 2000 nM gives t, anything at or above gives f.

>  <compoundStructureString>
CNC(=O)[C@H](CC(C)C)C[C@H](O)[C@H](Cc1ccccc1)NC(=O)c1cnc2ccccc2n1

>  <classification>
t

$$$$

Request: Strictly below 2000 nM in IC50? NC(=O)[C@H](Cc1ccccc1)C[C@H](O)[C@H](Cc1ccccc1)NC(=O)c1cnc2ccccc2n1
Result: t

Request: And the next one, CNC(=O)[C@H](CC(C)C)C[C@H](O)[C@H](Cc1ccccc1)NC(=O)c1cncc(Br)c1 ?
Result: t

Request: And the next one, NC(=O)[C@@H](C[C@H](O)[C@H](Cc1ccccc1)NC(=O)c1cnc2ccccc2n1)C1CCCC1 ?
Result: t

Request: And the next one, CNC(=O)[C@H](CC(C)C)C[C@H](O)[C@H](Cc1ccc(O)cc1)NC(=O)c1cnc2ccccc2n1 ?
Result: t

Request: And the next one, NC(=O)[C@@H](C[C@H](O)[C@H](Cc1ccccc1)NC(=O)c1cnc2ccccc2n1)C1CCOCC1 ?
Result: f

Request: And the next one, NC(=O)[C@@H](C[C@H](O)[C@H](Cc1ccccc1)NC(=O)c1cnc2ccccc2n1)C1CCCCC1 ?
Result: t

Request: And the next one, CNC(=O)[C@H](CC(C)C)C[C@H](O)[C@H](Cc1ccccc1)NC(=O)c1ccc2ccccc2n1 ?
Result: t

Request: And the next one, NC(=O)[C@H](CC1CCCC1)C[C@H](O)[C@H](Cc1ccccc1)NC(=O)c1cnc2ccccc2n1 ?
Result: t

Request: And the next one, CNC(=O)[C@H](CC(C)C)C[C@H](O)[C@H](Cc1ccccc1)NC(=O)c1cnccn1 ?
Result: f

Request: And the next one, CNC(=O)[C@H](CC(C)C)C[C@H](O)[C@H](Cc1ccccc1)NC(=O)c1cncc2ccccc12 ?
Result: f

Request: And the next one, CNC(=O)[C@H](CC(C)C)C[C@H](O)[C@H](Cc1ccccc1)NC(=O)c1ccc2ncccc2c1 ?
Result: f

Request: And the next one, CC[C@H](C)[C@H](NC(=O)c1cnc2ccccc2n1)[C@@H](O)C[C@@H](CC(C)C)C(=O)NC ?
Result: f

Request: And the next one, CC(C)CCC[C@H](C[C@H](O)[C@H](Cc1ccccc1)NC(=O)c1cnc2ccccc2n1)C(N)=O ?
Result: t
